Target: Bromodomain-containing protein 4 (Homo sapiens, UniProt O60885)
Test: Binding affinity to BRD4 bromodomain 1 (unknown origin) by isothermal titration calorimetry
measure-name: pKd
Hey, just a heads up that pKd is the negative log base 10 of the concentration in molar.

## Input Bromodomain-containing protein 4 (Homo sapiens, UniProt O60885) / pKd / CCc1c(C(=O)Nc2cc(S(=O)(=O)N(CC)CC)ccc2O)[nH]c(C)c1C(C)=O : value?
## Output 6.63

###

Target: Bromodomain-containing protein 4 (Homo sapiens, UniProt O60885)
Test: Inhibition of BRD4 bromodomain 1 (unknown origin)
measure-name: Ki
Give me the value, and tack the unit on after it.

## Input Request the reported Ki associated with COc1ccc2c([nH]c3nc(C)nc(-c4ccnc5ccccc45)c32)c1-c1c(C)noc1C
## Output 8.2 nM

###

Experiment: Induction of apoptosis in human Mino cells after 48 hrs by Annexin-V/propidium iodide staining based assay
Assay type: functional, cell-based
measure-name: IC50
Give me the value, and tack the unit on after it.

## Input Request the reported IC50 associated with Cc1ncsc1-c1ccc([C@H](C)NC(=O)[C@@H]2C[C@@H](O)CN2C(=O)[C@@H](NC(=O)COCCCOCCNC(=O)C[C@@H]2N=C(c3ccc(Cl)cc3)c3c(sc(C)c3C)-n3c(C)nnc32)C(C)(C)C)cc1
## Output 0.017 µM

###

Target: Bromodomain-containing protein 4 (Homo sapiens, UniProt O60885)
Assay: Inhibition of acetylated biotin-labelled RHGSGSK binding to N-terminal His6-tagged BRD4 bromodomain 1 (67 to 152 residues) (unknown origin) expressed in Escherichia coli after 1 hr by TR-FRET assay
measure-name: IC50 (nM)
Record the value in nM, omitting the unit from your answer.

## Input Request the reported IC50 associated with C[C@@H]1C(=O)N(C)c2ccc(-c3ccc(Nc4cccc(S(=O)(=O)N(C)C)c4)cc3)nc2N1C1CCN(C)CC1
## Output 20

###

Target: Bromodomain-containing protein 4 (Homo sapiens)
measure-name: pKi
Hey, just a heads up that pKi is the negative log base 10 of the concentration in molar.

## Input Bromodomain-containing protein 4 (Homo sapiens) / pKi / CCS(=O)(=O)Nc1ccc(Oc2ccc(F)cc2F)c(-c2cn(C)c(=O)c3[nH]c(C#CCN(C)C)cc23)c1 : value?
## Output 8.89

###

Biological target: Bromodomain-containing protein 4 (Homo sapiens, UniProt O60885)
Assay: Inhibition of biotinylated Acetyl-Histone H4 (Lys5, 8, […], […]) peptide binding to GST-tagged BRD4 bromodomain 2 (333 to 460 residues) (unknown origin) after 30 mins by Alphascreen method
measure-name: Ki (nM)
Record the value in nM, omitting the unit from your answer.

## Input Request the reported Ki associated with CCS(=O)(=O)Nc1ccc(Oc2ccc(F)cc2F)c(-c2cn(C)c(=O)c3[nH]c(C#CCN(C)C)cc23)c1
## Output 3.3

###

Tested on: MV4-11
Assay: Antiproliferative activity against human MV4-11 cells after 72 hrs by CellTiter-Glo assay
Format: functional, cell-based
Details: MV4-11, 72 h
measure-name: pIC50
Hey, just a heads up that pIC50 is the negative log base 10 of the concentration in molar.

## Input Request the reported pIC50 associated with CC[C@@H]1C(=O)Nc2ccc(-c3c(C)noc3C)cc2N1Cc1ccccc1
## Output 6.59

###

Target: Bromodomain-containing protein 4 (Homo sapiens, UniProt O60885)
Experiment: Inhibition of biotin-labelled tetra-acetylated histone peptide binding to recombinant human N-terminal His6-tagged BRD4 bromodomain 1 (1 to 477 residues) (unknown origin) expressed in Escherichia coli after 1 hr by TR-FRET assay
measure-name: pIC50
Hey, just a heads up that pIC50 is the negative log base 10 of the concentration in molar.

## Input Request the reported pIC50 associated with Cc1noc(C)c1-c1ccc2c(c1)C(C1CCCC1)(N1CCC[C@H](N)C1)C(=O)N2 (stereo partly specified)
## Output 8.10
